B1: ELF3 (parent)
chain: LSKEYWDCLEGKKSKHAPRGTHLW

variants of: B1; assay: protein stability index of a GFP-peptide fusion (GPS, HEK-293T) (PSI 1-6); higher = more stable; conditions: c terminus: a fixed tail appended;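 also: lentivirally expressed fusions sorted by FACS into six bins by GFP to DsRed ratio, PSI derived from sequencing read proportions per bin multiplied by bin number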
Measured Endpoint: protein stability index

- Chain Sequence: "LSKEYWDCLEGKKMKHAPRGTHLW"
  Observed Result: 2.24
- Chain Sequence: "LSKEHWDCLEGKKSKHAPRGTHLW"
  Observed Result: 3.85
- Chain Sequence: "LSKEYWDCLFGKKSKHAPRGTHLW"
  Observed Result: 2.08
- Chain Sequence: "QSKEYWDCLEGKKSKHAPRGTHLW"
  Observed Result: 2.71
- Chain Sequence: "LSKEYWDCLEGKKSKIAPRGTHLW"
  Observed Result: 2.87
- Chain Sequence: "LSKEYWDCLEGKKSKCAPRGTHLW"
  Observed Result: 2.64
- Chain Sequence: "LSKENWDCLEGKKSKHAPRGTHLW"
  Observed Result: 3.45
- Chain Sequence: "LSKEYWDCLEGKKSKHAPRGTVLW"
  Observed Result: 2.43
- Chain Sequence: "LSKEYWDCLEGKKSHHAPRGTHLW"
  Observed Result: 2.52
- Chain Sequence: "LSKEYWDCLEGKKSKHAVRGTHLW"
  Observed Result: 2.79
- Chain Sequence: "LEKEYWDCLEGKKSKHAPRGTHLW"
  Observed Result: 3.59
- Chain Sequence: "LSKEYWDCLEGKKSKHCPRGTHLW"
  Observed Result: 3.33
- Chain Sequence: "LSKWYWDCLEGKKSKHAPRGTHLW"
  Observed Result: 1.58
- Chain Sequence: "LSKEYWDCLEGKWSKHAPRGTHLW"
  Observed Result: 2.92
- Chain Sequence: "LSKEYADCLEGKKSKHAPRGTHLW"
  Observed Result: 3.6
- Chain Sequence: "LSKEYWDCLEGKKSKHAPRGIHLW"
  Observed Result: 2.19
- Chain Sequence: "LSKETWDCLEGKKSKHAPRGTHLW"
  Observed Result: 2.66
- Chain Sequence: "LSKEYWDCLEFKKSKHAPRGTHLW"
  Observed Result: 2.43
- Chain Sequence: "LSKEYTDCLEGKKSKHAPRGTHLW"
  Observed Result: 3.97
- Chain Sequence: "LSKQYWDCLEGKKSKHAPRGTHLW"
  Observed Result: 1.74
- Chain Sequence: "LSKEYWDCLEGKKSKHAPRETHLW"
  Observed Result: 2.59
- Chain Sequence: "LSKEYWDCDEGKKSKHAPRGTHLW"
  Observed Result: 3.22

Every entry's value here was drawn from the supplement of paper PMC10567573.
